Where do these numbers come from? They come from patent US20230310441A1.

- Method: Separate single dose oral study: half-life in rats
- Experimental parameters: rat, in vivo; single dose oral administration of 5-15 mg/kg
Recorded endpoint: half-life

{"Structure string": "C[C@H](NC(=O)Cn1nnc2ccccc2c1=O)c1ccc(OC(F)(F)F)cc1", "Measurement": "2 to 4 h"}

* * *

- Method: Phase 1 FIH study: plasma pharmacokinetics in healthy participants
- Assay type: in vivo, human
- Experimental parameters: human, plasma, oral, Part 2 MRD, 80/40 mg, up to 168 h post-dose; read-out: Mean Cmax (SD)
Recorded endpoint: Cmax

{"Compound": "C[C@H](NC(=O)Cn1nnc2ccccc2c1=O)c1ccc(OC(F)(F)F)cc1 [Compound (I)]", "Measurement": "880 ng/mL"}
